TARGET: UniProt:O95180
ASSAY OVERVIEW: T-type calcium channel block, whole cell patch clamp, α1H
MEASUREMENT PARAMETERS: HEK cells stably expressing human α1H; mainly non-inactivated protocol; values above 10,000 nM represented as 10000
MEASURED QUANTITY: IC50 (nM)

Use the examples below as a reference point.
{"COMPOUND STRUCTURE STRING": "O=C(N[C@H]1CC[C@@H](S(=O)(=O)c2cccc(C(F)(F)F)c2)CC1)c1cc(-c2ccc(F)cc2)n[nH]1", "MEASURED QUANTITY": "IC50", "REPORTED": 910}
{"COMPOUND STRUCTURE STRING": "CS(=O)(=O)c1ccc(C(=O)N[C@H]2CC[C@H](S(=O)(=O)c3cccc(C(F)(F)F)c3)CC2)c(Cl)c1", "MEASURED QUANTITY": "IC50", "REPORTED": 990}
{"COMPOUND STRUCTURE STRING": "O=C(N[C@H]1CC[C@](F)(S(=O)(=O)c2cccc(C(F)(F)F)c2)CC1)c1cc(F)cc(Cl)c1", "MEASURED QUANTITY": "IC50", "REPORTED": 220}

(I) CN(CCc1ccc(F)cc1)C(=O)C(C)(C)S(=O)(=O)c1cccc(C(F)(F)F)c1
(II) O=C(N[C@H]1CC[C@@](F)(S(=O)(=O)c2cccc(C(F)(F)F)c2)CC1)[C@H]1CC[C@@H](c2ccccc2)N1
Request: Between the entries labelled I and II , which has a larger IC50 value on record? Write the label of whichever entry you select.
Result: I
(I: 9810 nM, II: 3260 nM)

----------
TARGET: CAv1.2 (Homo sapiens)
Sequence (Q13936 whole entry): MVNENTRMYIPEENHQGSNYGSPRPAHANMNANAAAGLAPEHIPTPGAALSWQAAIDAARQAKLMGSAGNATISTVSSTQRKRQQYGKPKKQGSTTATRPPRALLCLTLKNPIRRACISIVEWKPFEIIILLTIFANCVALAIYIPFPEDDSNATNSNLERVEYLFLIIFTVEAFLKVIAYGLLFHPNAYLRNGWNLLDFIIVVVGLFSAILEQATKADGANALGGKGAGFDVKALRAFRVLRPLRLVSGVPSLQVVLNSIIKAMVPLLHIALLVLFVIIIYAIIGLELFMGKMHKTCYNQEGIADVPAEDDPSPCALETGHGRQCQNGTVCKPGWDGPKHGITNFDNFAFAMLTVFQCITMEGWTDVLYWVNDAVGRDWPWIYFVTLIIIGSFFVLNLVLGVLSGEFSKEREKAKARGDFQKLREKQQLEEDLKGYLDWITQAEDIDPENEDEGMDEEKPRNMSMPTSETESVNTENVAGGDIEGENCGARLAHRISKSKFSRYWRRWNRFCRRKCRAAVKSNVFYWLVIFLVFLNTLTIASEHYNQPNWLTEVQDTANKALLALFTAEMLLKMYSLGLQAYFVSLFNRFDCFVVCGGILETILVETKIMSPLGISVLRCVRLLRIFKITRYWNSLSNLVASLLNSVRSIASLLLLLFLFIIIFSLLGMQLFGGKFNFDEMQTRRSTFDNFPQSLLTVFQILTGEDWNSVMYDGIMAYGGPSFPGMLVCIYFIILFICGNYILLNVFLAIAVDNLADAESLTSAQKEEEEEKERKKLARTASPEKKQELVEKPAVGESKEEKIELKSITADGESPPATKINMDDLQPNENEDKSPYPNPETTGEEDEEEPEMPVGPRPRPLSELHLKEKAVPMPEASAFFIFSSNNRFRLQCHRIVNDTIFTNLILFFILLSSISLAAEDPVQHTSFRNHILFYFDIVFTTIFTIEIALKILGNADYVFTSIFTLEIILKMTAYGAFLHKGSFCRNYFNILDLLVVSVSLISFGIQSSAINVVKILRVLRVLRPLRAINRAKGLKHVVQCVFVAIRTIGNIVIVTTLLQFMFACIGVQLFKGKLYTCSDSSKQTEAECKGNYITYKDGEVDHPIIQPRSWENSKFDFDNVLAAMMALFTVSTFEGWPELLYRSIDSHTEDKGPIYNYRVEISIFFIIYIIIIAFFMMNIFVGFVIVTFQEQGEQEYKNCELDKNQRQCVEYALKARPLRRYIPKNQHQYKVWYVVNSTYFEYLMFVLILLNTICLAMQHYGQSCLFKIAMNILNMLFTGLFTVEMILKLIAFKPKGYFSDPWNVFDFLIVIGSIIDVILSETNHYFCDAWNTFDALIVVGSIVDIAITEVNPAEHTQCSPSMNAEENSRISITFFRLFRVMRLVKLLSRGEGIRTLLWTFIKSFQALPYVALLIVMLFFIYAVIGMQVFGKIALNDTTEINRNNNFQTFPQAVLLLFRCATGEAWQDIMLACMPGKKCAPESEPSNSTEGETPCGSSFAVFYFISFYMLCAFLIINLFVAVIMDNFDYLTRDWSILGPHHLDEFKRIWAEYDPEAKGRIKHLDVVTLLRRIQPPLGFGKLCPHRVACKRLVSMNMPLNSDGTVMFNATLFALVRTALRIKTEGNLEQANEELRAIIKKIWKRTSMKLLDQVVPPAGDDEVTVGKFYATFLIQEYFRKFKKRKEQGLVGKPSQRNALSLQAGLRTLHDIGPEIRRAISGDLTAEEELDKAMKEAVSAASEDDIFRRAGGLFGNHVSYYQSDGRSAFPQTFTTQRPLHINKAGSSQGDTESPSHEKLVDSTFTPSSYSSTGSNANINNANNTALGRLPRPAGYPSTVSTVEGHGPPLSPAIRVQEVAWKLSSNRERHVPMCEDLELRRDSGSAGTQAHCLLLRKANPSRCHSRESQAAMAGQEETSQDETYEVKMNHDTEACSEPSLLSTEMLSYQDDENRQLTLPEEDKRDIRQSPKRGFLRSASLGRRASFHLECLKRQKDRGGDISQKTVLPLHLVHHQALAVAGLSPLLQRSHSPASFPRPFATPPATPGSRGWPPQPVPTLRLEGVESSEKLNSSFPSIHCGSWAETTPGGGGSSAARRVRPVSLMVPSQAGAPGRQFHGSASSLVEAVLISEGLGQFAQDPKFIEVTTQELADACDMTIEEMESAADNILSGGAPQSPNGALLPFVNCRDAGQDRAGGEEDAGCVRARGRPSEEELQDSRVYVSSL
Sequence (P54289 25-1103 partner): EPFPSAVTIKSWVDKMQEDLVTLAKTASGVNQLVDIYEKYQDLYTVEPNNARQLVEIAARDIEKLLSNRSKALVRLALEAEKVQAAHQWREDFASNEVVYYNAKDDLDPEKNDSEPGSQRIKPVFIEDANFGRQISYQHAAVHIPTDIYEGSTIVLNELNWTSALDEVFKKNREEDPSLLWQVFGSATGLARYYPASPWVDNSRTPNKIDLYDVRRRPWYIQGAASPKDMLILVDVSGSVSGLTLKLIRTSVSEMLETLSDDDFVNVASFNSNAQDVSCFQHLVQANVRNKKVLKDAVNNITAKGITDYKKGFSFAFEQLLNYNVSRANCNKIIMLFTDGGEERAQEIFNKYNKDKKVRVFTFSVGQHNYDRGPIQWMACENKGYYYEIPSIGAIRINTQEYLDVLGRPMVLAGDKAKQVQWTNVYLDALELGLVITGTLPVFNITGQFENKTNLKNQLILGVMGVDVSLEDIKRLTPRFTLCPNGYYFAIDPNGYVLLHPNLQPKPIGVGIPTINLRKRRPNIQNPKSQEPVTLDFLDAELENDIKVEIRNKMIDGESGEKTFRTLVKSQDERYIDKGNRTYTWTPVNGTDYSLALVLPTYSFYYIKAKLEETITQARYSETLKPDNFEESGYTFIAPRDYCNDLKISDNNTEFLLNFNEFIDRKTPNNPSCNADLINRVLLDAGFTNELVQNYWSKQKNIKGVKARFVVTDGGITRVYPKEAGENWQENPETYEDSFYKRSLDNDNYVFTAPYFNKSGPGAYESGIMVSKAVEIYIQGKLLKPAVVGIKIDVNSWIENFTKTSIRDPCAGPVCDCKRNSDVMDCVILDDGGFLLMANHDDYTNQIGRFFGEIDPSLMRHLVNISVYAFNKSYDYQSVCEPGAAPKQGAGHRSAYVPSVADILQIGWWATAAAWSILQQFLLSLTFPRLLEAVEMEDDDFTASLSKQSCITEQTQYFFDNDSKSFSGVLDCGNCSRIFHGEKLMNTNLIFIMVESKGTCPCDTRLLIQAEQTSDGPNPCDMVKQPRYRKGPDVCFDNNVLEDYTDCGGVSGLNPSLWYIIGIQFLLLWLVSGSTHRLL
Sequence (Q08289 whole entry partner): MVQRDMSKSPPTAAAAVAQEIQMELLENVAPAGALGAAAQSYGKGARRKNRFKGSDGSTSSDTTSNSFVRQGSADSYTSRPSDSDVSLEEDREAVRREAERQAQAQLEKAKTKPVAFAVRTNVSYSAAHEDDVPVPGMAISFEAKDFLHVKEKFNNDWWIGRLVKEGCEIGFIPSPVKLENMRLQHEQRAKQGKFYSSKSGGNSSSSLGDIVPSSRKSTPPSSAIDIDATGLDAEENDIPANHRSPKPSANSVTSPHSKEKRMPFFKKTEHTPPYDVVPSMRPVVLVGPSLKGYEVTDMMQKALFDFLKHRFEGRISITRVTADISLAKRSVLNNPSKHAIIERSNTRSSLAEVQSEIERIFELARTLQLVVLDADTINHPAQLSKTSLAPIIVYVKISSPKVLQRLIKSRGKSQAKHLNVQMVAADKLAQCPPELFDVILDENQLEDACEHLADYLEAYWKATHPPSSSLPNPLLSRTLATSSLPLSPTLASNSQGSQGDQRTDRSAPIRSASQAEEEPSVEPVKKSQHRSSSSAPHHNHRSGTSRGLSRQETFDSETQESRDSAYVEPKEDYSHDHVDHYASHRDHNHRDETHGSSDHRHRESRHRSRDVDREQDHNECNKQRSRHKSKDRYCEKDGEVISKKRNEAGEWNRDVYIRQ
ASSAY OVERVIEW: FLIPR data, CAv1.2 channel blocking (Table 6)
Type: cell-based
MEASUREMENT PARAMETERS: ratio closed/inactivated IC50
# Lookup of reported CAv1.2 IC50 Ratio closed/inact. keyed by entry
The answer should be a number; do not append a unit.

Use the examples below as a reference point.
{"MOLECULE": "CC(C)(C[C@H]1C[C@@H](NC(=O)c2ccc(OCC(F)(F)F)nc2)C1)S(=O)(=O)c1cccc(C(F)(F)F)c1", "REPORTED": 3.3}
{"MOLECULE": "CC(C)([C@H]1C[C@H](NS(=O)(=O)c2ccc(F)c(Cl)c2)C1)S(=O)(=O)c1cc(F)cc(C(F)(F)F)c1", "REPORTED": 2}
{"MOLECULE": "CC(C)([C@H]1C[C@@H](NS(=O)(=O)c2ccc(F)c(C(F)(F)F)c2)C1)S(=O)(=O)c1cccc(C(F)(F)F)c1", "REPORTED": 1.9}
{"MOLECULE": "CC(C)(C1CC(CNC(=O)c2cnc(C(F)(F)F)nc2)C1)S(=O)(=O)c1cccc(C(F)(F)F)c1 (stereo not shown)", "REPORTED": 3.6}
{"MOLECULE": "O=C(NC[C@H]1C[C@H](S(=O)(=O)c2cccc(OC(F)(F)F)c2)C1)c1ccc(C(F)(F)F)cc1", "REPORTED": 3.4}

Request: # CAv1.2 IC50 Ratio closed/inact. lookup, item O=C(NC[C@H]1C[C@H](S(=O)(=O)c2cc(F)cc(C(F)(F)F)c2)C1)c1ccc(C(F)(F)F)cc1
Result: 1.7

Request: # CAv1.2 IC50 Ratio closed/inact. lookup, item CC(C)([C@H]1C[C@H](NC(=O)c2ccnc(C(F)(F)F)n2)C1)S(=O)(=O)c1cccc(OC(F)(F)F)c1
Result: 1.3

Request: # CAv1.2 IC50 Ratio closed/inact. lookup, item CC(C)([C@H]1C[C@@H](NS(=O)(=O)c2ccc(C(F)(F)F)nc2)C1)S(=O)(=O)c1cc(F)cc(C(F)(F)F)c1
Result: 2.5

Request: # CAv1.2 IC50 Ratio closed/inact. lookup, item CC(C)([C@H]1C[C@@H](NS(=O)(=O)c2ccc(OC(F)(F)F)cc2)C1)S(=O)(=O)c1cc(F)cc(C(F)(F)F)c1
Result: 3.3

Request: # CAv1.2 IC50 Ratio closed/inact. lookup, item CC(C)([C@H]1C[C@@H](NS(=O)(=O)c2ccc(C(F)(F)F)cc2)C1)S(=O)(=O)c1cccc(C(F)(F)F)c1
Result: 1.8

Request: # CAv1.2 IC50 Ratio closed/inact. lookup, item CC(C)([C@H]1C[C@H](NS(=O)(=O)c2ccc(F)c(Cl)c2)C1)S(=O)(=O)c1cccc(C(F)(F)F)c1
Result: 2.7

Request: # CAv1.2 IC50 Ratio closed/inact. lookup, item CC(C)([C@H]1C[C@H](NC(=O)c2ccc(Cl)cn2)C1)S(=O)(=O)c1cccc(C(F)(F)F)c1
Result: 2.2

Request: # CAv1.2 IC50 Ratio closed/inact. lookup, item CC(C)(C[C@H]1C[C@@H](NC(=O)c2ccc(C(F)(F)F)nc2)C1)S(=O)(=O)c1cccc(C(F)(F)F)c1
Result: 3
